B1: 5KPH (parent)
chain: EEKRQVKQVAKEKLLEQSPNSKVQVRRVQKQGNTIRVELELRTNGKKENYTVEVERQGNTWTVKRITRT

- Variants of: B1
- assay-remarks: folding stability dG (cDNA display proteolysis); higher = more stable
- measurement-setup: PBS, room temperature
quantity-measured: folding stability dG (kcal/mol)
One number for each entry, in kcal/mol.

Some solved cases for reference:
In [3]: df
Out[3]:
   variant_name     quantity_measured  value_measured
0          A10L  folding stability dG            3.55
1          V52F  folding stability dG            2.52

Report folding stability dG for each item below.
1. Q24C
2. E38S

**Result**
1. 3.83
2. 3.89
